So I've got a bunch of molecules here, and I need their inhibition values.
- System Under Test: Dihydroorotate dehydrogenase (quinone), mitochondrial (Homo sapiens, UniProt Q02127)
- Sequence (Q02127 whole entry): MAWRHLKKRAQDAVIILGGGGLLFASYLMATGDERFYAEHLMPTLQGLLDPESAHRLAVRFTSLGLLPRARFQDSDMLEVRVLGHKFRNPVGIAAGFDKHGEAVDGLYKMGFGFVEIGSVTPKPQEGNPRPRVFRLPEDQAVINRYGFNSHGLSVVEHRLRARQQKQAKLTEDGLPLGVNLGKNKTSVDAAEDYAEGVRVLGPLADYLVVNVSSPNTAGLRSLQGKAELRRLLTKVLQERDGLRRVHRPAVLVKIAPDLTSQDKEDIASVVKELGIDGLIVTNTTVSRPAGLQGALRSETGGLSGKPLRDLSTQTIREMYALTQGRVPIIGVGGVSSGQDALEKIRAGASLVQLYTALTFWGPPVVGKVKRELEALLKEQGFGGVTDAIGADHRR
- Assay Notes: Inhibition of human DHODH assessed as decrease in DCIP at 10 uM using dihydroorotate as substrate measured every 30 seconds for 6 mins
One number for each entry, in %.

Below: 2 molecules and their reported inhibition.
> print(dat)
                           substance.smiles  readout.number
1  COc1cccc(F)c1NC(=O)c1cccc2nc(-c3cc(Br)nn3-c3ncccc3Cl)[nH]c12            15.7
2  Cc1ccc(CNC(=O)c2cccc3nc(-c4cc(Br)nn4-c4ncccc4Cl)[nH]c23)cc1            22.7

Dear colleague, could you send me inhibition for each of the items below? Thanks.
1. COc1ccccc1NC(=O)c1cccc2nc(-c3cc(Br)nn3-c3ncccc3Cl)[nH]c12
2. O=C(Nc1ccccc1I)c1cccc2nc(-c3cc(Br)nn3-c3ncccc3Cl)[nH]c12
3. O=C(NCc1c(F)ccc(F)c1F)c1cccc2nc(-c3cc(Br)nn3-c3ncccc3Cl)[nH]c12
4. COc1ccc(NC(=O)c2cccc3nc(-c4cc(Br)nn4-c4ncccc4Cl)[nH]c23)c(OC)c1

1. 60.5
2. 24.8
3. 43
4. 1.3

---

- System Under Test: Dihydroorotate dehydrogenase (quinone), mitochondrial (Homo sapiens, UniProt Q02127)
- Assay Notes: Inhibition of human DHODH assessed as decrease in DCIP at 10 uM using dihydroorotate as substrate measured every 30 seconds for 6 mins
Measured Endpoint: inhibition

Guide cases for inhibition, answers given:
> print(dat)
                           substance.smiles  measured.endpoint  result
1  O=C(NCc1ccc(C(F)(F)F)cc1)c1cccc2nc(-c3cc(Br)nn3-c3ncccc3Cl)[nH]c12         inhibition     32%
2  COc1ccc(NC(=O)c2cccc3nc(-c4cc(Br)nn4-c4ncccc4Cl)[nH]c23)cc1         inhibition   36.1%
3  O=C(Nc1ccc(F)cc1F)c1cccc2nc(-c3cc(Br)nn3-c3ncccc3Cl)[nH]c12         inhibition   26.9%

Shift focus to the following entry.
Which inhibition value is on record for "COc1cccc(C)c1NC(=O)c1cccc2nc(-c3cc(Br)nn3-c3ncccc3Cl)[nH]c12" ? 9.43%
